TEST_READOUT: melting point

Observe how each entry below is paired with its result.
COCCOCOc1c(C(C)(C)C)cc(-c2nc(N)n[nH]2)cc1C(C)(C)C ... 233 to 235 °C
COc1ccc(-c2cc(=O)n(CCc3ccc(Cl)cc3)nc2-c2ccc(OC)cc2)cc1 ... 133 to 134 °C
Cc1ccccc1CC(=O)N1C[C@@H]2C(=O)CCC(c3ccccc3)(c3ccccc3)[C@@H]2C1 (racemic) ... 196 °C
O=C(O)CCCc1ccc(NS(=O)(=O)c2ccc(Br)cc2)cn1 ... 188 to 190 °C
O=C(c1cc(O)c(O)cc1[N+](=O)[O-])N1CCC(N2CCCCC2)CC1 ... 290 °C

# per-item lookup of melting point; items listed below
1. O=C1O[C@@H](CNC(=O)C(F)(F)F)CN1c1ccc2c(c1)CCCc1cnoc1-2
2. Cc1nc(C(N)=O)c2n1-c1ccc([N+](=O)[O-])cc1C(c1ccccc1Cl)=NC2
3. CCc1ccc(OCCCCCN2CCN(c3nccs3)CC2)cc1
4. O=C(CCc1ccccc1)NCCCn1ccnc1
5. CCc1c(-c2ccccc2)oc2c(C(=O)NCCCN3CCN(c4ccccc4OC)CC3)cccc2c1=O
6. COc1nn2ccccc2c1C(C)=O
7. COC(=O)c1ncc(-c2ccccc2)nc1N

1: 203 to 205 °C; 2: > 300 °C; 3: 125 to 127 °C; 4: 90 to 92 °C; 5: 133 to 136 °C; 6: 158 °C; 7: 228 °C

* * *

Field: melting point. Provide a value for each of the compounds that follow.

O=c1[nH]c2c(I)c(Cl)c(Cl)c(I)c2[nH]c1=O ... 353 to 354 °C
COc1nc2c(s1)C(=O)N(C(C)(C)C)C2=O ... 63 to 66 °C
CCc1ccc(-c2cc3c(O)cccc3o2)s1 ... 87 to 90 °C

Now consider a different compound.
// recorded melting point for O=C1Nc2ccccc2Cc2nccn21 : 238 to 240 °C

* * *

Task for the reader: assign each of the following molecules its reported melting point.

Sample answers from the record:
CCOCc1nc2c(N)nc3ccc(OCc4ccccc4)cc3c2n1CC(C)(C)NC(=O)C1CCCCC1 ... 90 °C
Cc1cc(C(=O)N(C)C)ccc1-c1ccc(C(=O)Nc2ccc(Br)c(N3CCN(C)CC3)c2)cc1 ... 227 to 228 °C
COC(=O)COc1ccccc1Oc1cc(NC(=O)CC(O)(O)C(F)(F)F)c(F)cc1Cl ... 165 °C

Could you report melting point for every entry in the following list?
1. CCOC(=O)C1=C(N)NC(N)=C(C(=O)OC(C)C)C1c1ccccc1 (stereo not given)
2. CCOCC1OC(n2cnc3c(NC4CCCC4)nc(Cl)nc32)C(O)C1O (stereo not given)
3. Cn1cc(Cc2cc3cc(C(F)(F)F)ccc3n2S(=O)(=O)c2cccc(C(C)(C)C)c2)cc1C(=O)O
4. CC1CC(=O)C=C(N)C1 (stereo not given)
5. O=c1oc2ccc(-c3ccc(F)cc3F)cc2c(=O)n1-c1ccc(Cl)cc1F

1. 170 °C
2. 114 to 116 °C
3. 160 °C
4. 165 to 169 °C
5. 176 to 177 °C

Batch lookup, melting point per entry.
1. CCSC1C(=O)N=C(NC(=O)Nc2cccc(Cl)c2)N1C (stereo not given)
2. CCCOc1ccc(S(=O)(=O)N2CCN(Cc3ccccc3)CC2)cc1-c1nc2cc(Cl)c([N+](=O)[O-])cc2c(=O)[nH]1
3. CC(C)(C)OC(=O)NCCCCCC(=O)O

1. 102 to 104 °C
2. 198 to 200 °C
3. 39 to 42 °C

* * *

Give measured melting point for each item. Keep answers brief.

Please review the following examples before continuing.
CCCSN(C)C(=O)Nc1ccc(Cl)c(Cl)c1 ... 40 °C
O=C(CSCCN1C(=O)c2ccccc2C1=O)c1ccc(F)cc1 ... 124 to 126 °C
CCOc1cc(CN2CCN(c3ccc(C(=O)NC)cc3)CC2)cc2c1OC(C)C(=O)N2 (stereo not given) ... 228 to 233 °C
OC[C@H](O)COc1nc(Oc2ccc(F)cc2F)nc2[nH]nc(-c3ccccc3Cl)c12 ... 179 to 181 °C
O=C(NCCc1ccccn1)Nc1ccccc1[N+](=O)[O-] ... 182 °C

Dear colleague, could you please provide melting point for the molecules listed below?
1. CCCCc1nn(-c2cc(NC(=O)CC)ccc2Cl)c(=O)n1Cc1ccc(-c2ccccc2S(N)(=O)=O)cc1F
2. CC(=O)OC[C@H]1O[C@@H](c2ccc(C)c(Cc3ccc(-c4ccc(F)cc4)s3)c2)[C@H](OC(C)=O)[C@@H](OC(C)=O)[C@@H]1OC(C)=O
3. CC[C@@H](c1ccccc1)N(Cc1ccc(C(=O)OC)c(F)c1F)S(=O)(=O)c1ccc(Cl)cc1
4. Cn1cc(-c2cncc(OC3SCC(O)C(O)C3O)c2)cn1 (stereo not given)
5. COC(=O)c1cc2cc([N+](=O)[O-])c(OCc3ccccc3)cc2[nH]1
6. C=C(C)Cc1c(O)cc(C(C)(C)C)c(OC(C)=O)c1C(C)(C)C
7. CCOC(=O)N1CCC(NC(=S)Nc2cncnc2NCc2ccco2)CC1

1: 135 to 137 °C; 2: 160 to 170 °C; 3: 87 to 89 °C; 4: 216 °C; 5: 184 to 187 °C; 6: 102 °C; 7: 193 °C

* * *

Please respond with reported melting point for every item in the list.

Please review the entries below; each comes with its answer.
O=C(O)c1cc(F)ccc1Nc1ccnc2cc(Cl)ccc12 ... 341 to 342 °C
Clc1ccc(CCC(Cn2ccnc2)SCc2ccco2)cc1 (stereo not given) ... 97 to 98 °C
COc1ccc(NC(=O)c2ccc(-c3ccc(C(=O)N4CCCC4)cc3C)cc2)cc1N1CCN(C)CC1 ... 187 to 188 °C

For each of the molecules below, note its melting point.
1. CN(C)CCCN(c1ccccc1)c1ncccc1NC(=O)c1ccccc1[N+](=O)[O-]
2. O=C(O)C(=O)c1ccc(OCCOc2ccc(C(F)(F)F)cc2)cc1
3. COC(=O)Cc1c(F)cccc1Cl
4. COC(=O)NC(CCc1ccc(Br)cc1)C(=O)O (stereo not given)

1: 134 to 136 °C; 2: 121 to 123 °C; 3: 79 to 80 °C; 4: 136 to 137 °C

* * *

Hi there, I'd appreciate the recorded melting point for every entry that follows.

Here's what some known entries look like.
Cc1ccc2sc(=O)[nH]c2c1 ... 86 to 88 °C
O=C(NNc1ccc(Cl)cc1)c1cnc2ccc(I)cc2c1O ... 250 to 252 °C

Okay, now this compound:
Per the record, CC(C)(O)c1ccc(Cl)nc1 has melting point of 67 to 71 °C

* * *

Provide the recorded melting point for the entries that follow.

C[C@@H]1CN(CC(=O)Nc2nccc3ccccc23)C[C@H](C)N1c1ncnc2sccc12 ... 206 to 207 °C
O=C(NCCCSc1ccncc1)c1ccccc1 ... 120 to 121 °C
COc1cc2c(cc1OC)C(Cc1cc(I)c(N)c(I)c1)NCC2 (configuration not stated) ... 169 to 171 °C
COc1ccc(C(=O)Nc2ccccc2)cc1NS(=O)(=O)c1ccc(C(=O)O)cc1 ... 212 to 214 °C
C#CCS(=O)(=O)c1cccc([N+](=O)[O-])c1 ... 250 to 255 °C

// for each molecule below, give its melting point
1. CNC(=O)c1nn(-c2ccccc2)c(O)c1N=Nc1ccc(S(=O)(=O)NCCCCCCBr)cc1
2. Oc1ccc2c(c1)nc(NC1CCN(CCNc3ncccn3)CC1)n2Cc1ccc(F)cc1
3. CC(C)SCCOc1ccc(COc2cnn(C(C)(C)C)c(=O)c2Cl)cc1
4. Cc1ccc2oc(-c3ccc(C=Cc4ccc(C(=O)O)cc4)cc3)cc2c1
5. Cc1cccc(-c2c(CC(=O)Nc3ccc(F)cc3C(F)(F)F)c(=O)oc3cc4c(cc23)CC=C4)c1

1: 234 to 236 °C; 2: 194 °C; 3: 82 to 84.5 °C; 4: 355 to 358 °C; 5: 196 to 197 °C

* * *

TEST_READOUT: melting point

Look over these answered cases.
O=C(O)CCCCc1cc2cc(Cl)ccc2n1S(=O)(=O)c1ccccc1 ... 144 to 148 °C
O=C(O)COc1ccc2c(-c3ccccc3F)noc2c1Br ... 180 to 182 °C
O=C(CCl)Nc1ccc2ncnc(Nc3cccc(I)c3)c2c1 ... > 300 °C
CCCc1nc2cnc3cc(C)ccc3c2o1 ... 65 to 68 °C
Nc1ncnc2c1ncn2C1CCC(O)C1O (configuration not stated) ... 201 to 202 °C

Provide reported melting point for each item, in the same order as listed.
1. CN1CCN(c2sc(-c3nc4ccccc4c(=O)n3-c3ccc(Cl)cc3)cc2-c2ccc(S(C)(=O)=O)cc2)CC1
2. Cn1cncc1C(O)(c1ccc(-c2ccc(Cl)cc2)cc1)c1ccc2c(c1)c(-c1cccc(Cl)c1)cc(=O)n2C (configuration not stated)
3. O=c1[nH]c2ncc(-c3cn[nH]c3)nc2n1CC1CCCCC1
4. c1cc(OCC2CO2)c2nonc2c1 (configuration not stated)
5. Oc1ccc(-c2cc3c(Br)c(O)ccc3o2)cc1
6. O=C(CCCCCl)NC1CCCCC1
7. O=C(NCCOc1cc(-c2ccccc2)on1)c1ccccc1

1: 232 to 233 °C; 2: 236 °C; 3: 246 to 248 °C; 4: 75 °C; 5: 196 to 198 °C; 6: 70 to 71 °C; 7: 129 to 130 °C

Data origin: a melting point compilation (Tetko et al.; mined from patent text by program, amines drawn as free bases though some values may be those of a salt)
